Assay: Tanguay_ZF_120hpf_PIG_legacy: (Legacy) Oregon State University Tanguay Lab 120 Hour Post-fertilization zebrafish Assay for Pigmentation Malformation (AID 2283650);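 also: dechorionated Tropical 5D zebrafish embryos exposed singly from 6 to 120 hpf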
Results filed as inconclusive are left out. The source made the active and inactive calls. The calls were made as follows: active = hit-call score of the fitted dose curve at least 0.9, where 1 is the maximum; inconclusive = response in the unintended direction; inactive = score below 0.9.
Hi! Could you answer with just one of these? active, inactive

Reference set, count: 5
[[record]]
compound = "CCCSP(=O)(OCC)Oc1ccc(Br)cc1Cl (configuration not stated)"
assigned_class = "inactive"

[[record]]
compound = "CNc1cnn(-c2cccc(C(F)(F)F)c2)c(=O)c1Cl"
assigned_class = "inactive"

[[record]]
compound = "COP(=O)(OC)C(O)C(Cl)(Cl)Cl (configuration not stated)"
assigned_class = "inactive"

[[record]]
compound = "Nc1c(Cl)cc([N+](=O)[O-])cc1Cl"
assigned_class = "active"

[[record]]
compound = "C#CC(C)(C)NC(=O)c1cc(Cl)cc(Cl)c1"
assigned_class = "inactive"


State the result this test recorded for COP(=O)(NC(C)=O)SC (configuration not stated) .
inactive

State the result this test recorded for CC(C1CC1)C(O)(Cn1cncn1)c1ccc(Cl)cc1 (configuration not stated) .
inactive

---

Read-out: Tumor necrosis factor receptor 1 (TNFRSF1A), TNFRSF1A (gene 7132)
Experiment: LTEA_HepaRG_TNFRSF1A: Life Technologies and Expression Analysis (LTEA) Assay for Tumor necrosis factor receptor 1 (TNFRSF1A) using HepaRG (AID 2283535)
Conditions: mRNA level, 48 h; actives raise or lower the signal
Activity calls are given as the source filed them. Rule for the calls: active = hit-call score of the fitted dose curve at least 0.9, where 1 is the maximum; inactive = score below 0.9.
Hi! Could you answer with just one of these? active, inactive

Reference set, count: 3
[[record]]
compound = "CCOP(=S)(OCC)OC(Cl)C(Cl)(Cl)Cl (centres undefined)"
assigned_class = "inactive"

[[record]]
compound = "CC(=NC#N)N(C)Cc1ccc(Cl)nc1"
assigned_class = "inactive"

[[record]]
compound = "CCc1cccc(C)c1N(C(=O)CCl)C(C)COC (centres undefined)"
assigned_class = "inactive"


State the result this test recorded for "CCCCOC(=O)c1ccccc1C(=O)O" .
inactive

State the result this test recorded for "CNC(=O)ON=C(SC)C(=O)N(C)C" .
inactive

State the result this test recorded for "CCCOCC(=Nc1ccc(Cl)cc1C(F)(F)F)n1ccnc1" .
active

State the result this test recorded for COP(=O)(OC)C(O)C(Cl)(Cl)Cl (centres undefined) .
active

State the result this test recorded for "CCOP(=O)(OCC)Oc1cc(C)nc(C(C)C)n1" .
inactive

State the result this test recorded for "COc1ccc(C(=CC(=O)N2CCOCC2)c2ccc(Cl)cc2)cc1OC" .
inactive

---

Experiment: CCTE_Simmons_MITO_viability: CellTiter-Glo Viability Assessment for CCTE's HepG2 Seahorse XF Respirometric Screening Assay [post-hoc], Simmons Lab (AID 2284007)
Inconclusive results are not listed. The source made the active and inactive calls. Rule for the calls: active = hit-call score of the fitted dose curve at least 0.9, where 1 is the maximum; inconclusive = response in the unintended direction; inactive = score below 0.9.
Hi! Could you answer with just one of these? true (1) for active, false (0) for inactive

Reference set, count: 8
[[record]]
compound = "CCC(CC)Nc1c([N+](=O)[O-])cc(C)c(C)c1[N+](=O)[O-]"
assigned_class = "false (0)"

[[record]]
compound = "CCc1cccc(CC)c1N(COC)C(=O)CCl"
assigned_class = "false (0)"

[[record]]
compound = "CCOP(=S)(Oc1cnc(C(C)(C)C)nc1)OC(C)C (stereo not drawn)"
assigned_class = "false (0)"

[[record]]
compound = "CC[C@H](C)[C@H]1O[C@]2(C=C[C@@H]1C)C[C@@H]1C[C@@H](C/C=C(\\C)[C@@H](O[C@H]3C[C@H](OC)[C@@H](O[C@H]4C[C@H](OC)[C@@H](NC)[C@H](C)O4)[C@H](C)O3)[C@@H](C)/C=C/C=C3\\CO[C@@H]4[C@H](O)C(C)=C[C@@H](C(=O)O1)[C@]34O)O2"
assigned_class = "true (1)"

[[record]]
compound = "CCCSP(=O)(OCC)SCCC"
assigned_class = "false (0)"

[[record]]
compound = "O=C(O)c1cc(Oc2ccc(C(F)(F)F)cc2Cl)ccc1[N+](=O)[O-]"
assigned_class = "false (0)"

[[record]]
compound = "CC(C)=CC1C(C(=O)OCN2C(=O)C3=C(CCCC3)C2=O)C1(C)C (stereo not drawn)"
assigned_class = "false (0)"

[[record]]
compound = "CCc1cccc(C)c1N(C(=O)CCl)C(C)COC (stereo not drawn)"
assigned_class = "false (0)"


Now look at this one.
State the result this test recorded for "CC(C)N(C(=O)SCC(Cl)=C(Cl)Cl)C(C)C" .
false (0)

---

Test: APR_HepG2_P-H2AX_24hr: Apredica 24-hour HepG2 Assay for H2AX Phosphorylation (AID 2282920)
Details: high-content imaging, actives raise or lower the signal
Calls of active or inactive are those of the source. Rule for the calls: active = hit-call score of the fitted dose curve at least 0.9, where 1 is the maximum; inactive = score below 0.9.
Hi! Could you answer with just one of these? active, inactive

Reference set, count: 10
[[record]]
compound = "Cc1nn(-c2cc(NS(C)(=O)=O)c(Cl)cc2Cl)c(=O)n1C(F)F"
assigned_class = "inactive"

[[record]]
compound = "CC(C)N(C(=O)SCC(Cl)=C(Cl)Cl)C(C)C"
assigned_class = "inactive"

[[record]]
compound = "CSc1nc(NC(C)C)nc(NC(C)C)n1"
assigned_class = "inactive"

[[record]]
compound = "CCOP(=O)(NC(C)C)Oc1ccc(SC)c(C)c1 (centres undefined)"
assigned_class = "inactive"

[[record]]
compound = "CN(C)NC(=O)CCC(=O)O"
assigned_class = "inactive"

[[record]]
compound = "Nc1c(Cl)cc([N+](=O)[O-])cc1Cl"
assigned_class = "inactive"

[[record]]
compound = "Cc1cc(C2CC2)nc(Nc2ccccc2)n1"
assigned_class = "inactive"

[[record]]
compound = "COP(=O)(OC)OC(Br)C(Cl)(Cl)Br (centres undefined)"
assigned_class = "active"

[[record]]
compound = "CN(C)C(=O)Nc1cccc(C(F)(F)F)c1"
assigned_class = "inactive"

[[record]]
compound = "CCOP(=S)(OCC)Oc1ccc([N+](=O)[O-])cc1"
assigned_class = "inactive"


State the result this test recorded for COP(=O)(NC(C)=O)SC (centres undefined) .
inactive

State the result this test recorded for "CC1=NNC(=O)N(/N=C/c2cccnc2)C1" .
inactive

State the result this test recorded for "CCC(=O)Nc1ccc(Cl)c(Cl)c1" .
inactive

---

Read-out: Urokinase-type plasminogen activator receptor (uPAR), PLAUR (gene 5329)
Assay: BSK_CASM3C_uPAR: BioMAP Diversity Plus: CASM3C Assay for Urokinase-type plasminogen activator receptor (uPAR) Biomarker Activity (AID 2283054);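 also: cell-surface uPAR protein level quantified by ELISA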
Settings: primary human coronary artery smooth muscle cells; actives raise or lower the signal
Calls of active or inactive are those of the source. How the source made its calls: active means hit-call score of the fitted dose curve at least 0.9, where 1 is the maximum; inactive means score below 0.9.
Hi! Could you answer with just one of these? 1.0 = active, 0.0 = inactive

Reference set, count: 3
[[record]]
compound = "CCC(=O)Nc1ccc(Cl)c(Cl)c1"
assigned_class = 0.0

[[record]]
compound = "CN(C)[C@@H]1C(=O)C(C(N)=O)=C(O)[C@@]2(O)C(=O)C3=C(O)c4c(O)cccc4[C@@](C)(O)[C@H]3[C@H](O)[C@@H]12"
assigned_class = 0.0

[[record]]
compound = "COP(=O)(OC)OC(Br)C(Cl)(Cl)Br (configuration not stated)"
assigned_class = 1.0


State the result this test recorded for "CCc1cccc(CC)c1N(COC)C(=O)CCl" .
0.0

State the result this test recorded for "Nc1nc(N)nc(NC2CC2)n1" .
0.0

State the result this test recorded for "CCOP(=O)(OCC)Oc1cc(C)nc(C(C)C)n1" .
0.0

State the result this test recorded for COP(=O)(NC(C)=O)SC (configuration not stated) .
0.0

State the result this test recorded for CC(C)=CC1C(C(=O)OCN2C(=O)C3=C(CCCC3)C2=O)C1(C)C (configuration not stated) .
0.0

State the result this test recorded for "CCCOc1nn(C(=O)NS(=O)(=O)c2ccccc2C(=O)OC)c(=O)n1C" .
0.0

State the result this test recorded for "CCOP(=S)(OCC)Oc1cc(C)nc(C(C)C)n1" .
0.0

State the result this test recorded for CC(C1CC1)C(O)(Cn1cncn1)c1ccc(Cl)cc1 (configuration not stated) .
0.0

State the result this test recorded for "COc1ccc(C(=CC(=O)N2CCOCC2)c2ccc(Cl)cc2)cc1OC" .
0.0

---

Read-out: Cellular tumor antigen p53 (Homo sapiens)
Assay: LTEA_HepaRG_TP53: Life Technologies and Expression Analysis (LTEA) Assay for Tumor Protein P53 (TP53) using HepaRG (AID 2283537)
Details: mRNA level, 48 h; actives raise or lower the signal
Experimental: LTEA_HepaRG is a cell based, multiplexed-readout assay that uses HepaRG, a human liver cell line, with measurements taken at 48 hours after chemical dosing on a 96-well plate.LTEA_HepaRG_TP53 is one of 102 assay component(s) measured in the LTEA HepaRG cell culture assay. It is a marker of Oxidative Stress.Data from the assay component LTEA_HepaRG_TP53 was analyzed into 1 endpoint. […]
Active and inactive are the calls of the source. How the source made its calls: active means hit-call score of the fitted dose curve at least 0.9, where 1 is the maximum; inactive means score below 0.9.
Hi! Could you answer with just one of these? active, inactive

Reference set, count: 6
[[record]]
compound = "CCOP(=S)(Oc1cnc(C(C)(C)C)nc1)OC(C)C (configuration not stated)"
assigned_class = "inactive"

[[record]]
compound = "CNC(=O)ON=C(C)SC"
assigned_class = "inactive"

[[record]]
compound = "FC(F)C(F)(F)OCC(Cn1cncn1)c1ccc(Cl)cc1Cl (configuration not stated)"
assigned_class = "active"

[[record]]
compound = "CCOP(=O)(OCC)Oc1cc(C)nc(C(C)C)n1"
assigned_class = "inactive"

[[record]]
compound = "CCCCN(CC)c1c([N+](=O)[O-])cc(C(F)(F)F)cc1[N+](=O)[O-]"
assigned_class = "inactive"

[[record]]
compound = "CCC(=NOC/C=C/Cl)C1=C(O)CC(C2CCOCC2)CC1=O (configuration not stated)"
assigned_class = "inactive"


State the result this test recorded for "COc1cc(OC)nc(Sc2cccc(Cl)c2C(=O)O)n1" .
inactive

State the result this test recorded for "CN1COCN(Cc2cnc(Cl)s2)C1=N[N+](=O)[O-]" .
inactive

State the result this test recorded for "CC(C)N(C(=O)SCC(Cl)=C(Cl)Cl)C(C)C" .
inactive

Values compiled from PubChem BioAssay (EPA / NIEHS).
